// reported AC1.4 per item
Tested on: Bovine cardiac myofibrils
experimental.details: In vitro model of dose-dependent myofibril ATPase modulation (AC1.4, pyruvate kinase/lactate dehydrogenase-coupled ATPase assay at pCa25)
Assay type: biochemical
experimental.conditions: concentration at which ATPase activity was 1.4-fold higher than the bottom of the dose curve, mean of a minimum of two independent tests
Give your result in µM as a bare value.

molecule=CC(C)C[C@@H](NC(=O)[C@H]1CCCN1C(=O)c1cccc(S(=O)(=O)N2CC(C#N)C2)c1)c1ccc(C(F)(F)F)cc1 assay_value=0.0435
molecule=N#CC1CN(S(=O)(=O)N2CCC[C@H](C(=O)N3CCC[C@@H]3C(=O)N[C@H](CC3CC3)c3ccc(C(F)(F)F)cc3)C2)C1 assay_value=0.0227
molecule=C[C@@H](NC(=O)[C@H]1CCCN1C(=O)[C@@H]1CN(S(=O)(=O)N2CC(C#N)C2)CCN1)c1ccc(C(F)(F)F)cc1 assay_value=1.606
molecule=CC[C@@H](NC(=O)[C@H]1CCCN1C(=O)c1cccc(S(C)(=O)=O)c1)c1cc(F)c(Cl)cc1F assay_value=1.5515
molecule=CCS(=O)(=O)c1cc(C(=O)N2[C@@H](C(=O)N[C@@H](c3cc(F)c(Cl)cc3F)C3CC3)C[C@H]3C[C@H]32)ccn1 assay_value=1.2325

Now look at this one.
Provide measured AC1.4 value, entry: CC(NC(=O)[C@H]1CCCN1C(=O)[C@H]1CCCN(S(=O)(=O)N2CC(C#N)C2)C1)c1cccc(F)c1F (stereo partly drawn)
7.879
